target: Melanocyte-stimulating hormone receptor (Homo sapiens, UniProt Q01726); assay: Displacement of [125I]-NDP-alpha-MSH from human MC1R expressed in HEK293 cells after 40 mins by gamma counting method
Sequence (Q01726 whole entry): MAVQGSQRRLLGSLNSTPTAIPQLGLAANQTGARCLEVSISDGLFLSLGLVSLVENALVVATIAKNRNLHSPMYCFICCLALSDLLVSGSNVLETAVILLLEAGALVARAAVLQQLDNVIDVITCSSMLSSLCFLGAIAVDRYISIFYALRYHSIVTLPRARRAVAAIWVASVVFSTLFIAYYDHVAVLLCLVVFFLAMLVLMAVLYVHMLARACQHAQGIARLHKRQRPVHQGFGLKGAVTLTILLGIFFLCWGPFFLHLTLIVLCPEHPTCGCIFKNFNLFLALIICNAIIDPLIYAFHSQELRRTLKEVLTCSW
pIC50: −log10 of the molar value. Bridge positions count the residues as written; N and C are the ends. Square brackets hold non-standard residues; d marks the D form. Peptide text beside a SMILES is read from it. Aib = CC(C)(N)C(=O)O
outcome.measure: pIC50

A = CC1(C)NC(=O)C[C@@H](C(N)=O)NC(=O)[C@H](Cc2c[nH]c3ccccc23)NC(=O)[C@H](CCCNC(=N)N)NC(=O)[C@@H](Cc2ccccc2)NC(=O)[C@H](Cc2c[nH]cn2)NC1=O ([Aib]H[dF]RWD-NH2; lactam N-6)
B = N=C(N)NCCC[C@@H]1NC(=O)[C@@H](Cc2ccc3ccccc3c2)NC(=O)[C@H](Cc2c[nH]cn2)NC(=O)C2(CCCCC2)NC(=O)C[C@@H](C(N)=O)NC(=O)[C@H](Cc2c[nH]c3ccccc23)NC1=O
Response body: label of entry with the larger pIC50; valid values A , B . Output the label that corresponds to your choice. B

All values here come from ChEMBL document CHEMBL4177763.
